- Assay Text: Pharmacokinetics and metabolism after iv and po administration
- Type: in vivo
- Condition Parameters: male, C57/BL6, mouse, plasma, iv, 5 mg/kg, 5 h after iv 5 mg/kg artemiside 5; read-out: Mean iv circulating concentration
Measured Property: concentration at 5 h (nM)

- C[C@H]1[C@H](N2CC[S+]([O-])CC2)O[C@@H]2O[C@@]3(C)CC[C@H]4[C@H](C)CC[C@@H]1[C@@]24OO3 [Artemisox 6, Artemisox]: 20
- C[C@H]1[C@H](N2CCS(=O)(=O)CC2)O[C@@H]2O[C@@]3(C)CC[C@H]4[C@H](C)CC[C@@H]1[C@@]24OO3 [Artemisone 7, Artemisone]: 5
- C[C@H]1[C@H](N2CCSCC2)O[C@@H]2O[C@@]3(C)CC[C@H]4[C@H](C)CC[C@@H]1[C@@]24OO3 [Artemiside 5, Artemiside]: 86
